biological target: C-C chemokine receptor type 5 (Homo sapiens, UniProt P51681); test: Antagonist activity at CCR5 (unknown origin) expressed in HEK293 cells co-expressing Galpha16 assessed as intracellular calcium change incubated for 15 mins by Fluo-4 AM calcium flux assay
Sequence (P51681 whole entry): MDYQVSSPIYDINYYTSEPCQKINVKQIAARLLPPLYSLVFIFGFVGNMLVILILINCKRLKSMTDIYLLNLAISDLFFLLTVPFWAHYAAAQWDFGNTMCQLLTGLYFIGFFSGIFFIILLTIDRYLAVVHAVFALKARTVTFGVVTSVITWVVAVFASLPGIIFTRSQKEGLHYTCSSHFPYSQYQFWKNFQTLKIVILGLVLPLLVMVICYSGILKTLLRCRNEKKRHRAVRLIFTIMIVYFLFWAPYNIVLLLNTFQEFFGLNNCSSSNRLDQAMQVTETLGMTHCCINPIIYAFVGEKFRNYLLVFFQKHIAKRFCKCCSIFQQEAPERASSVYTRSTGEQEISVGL
Labelling field: enter true if recorded IC50 is less than 20 nM. Enter false if it equals or exceeds that cut-off.

compound: Cc1nnc(C(C)C)n1[C@H]1C[C@H]2CC[C@@H](C1)N2CC[C@H](NC(=O)C1CCCCC1)c1ccc(C#N)s1
discrete.label: false
--
compound: Cc1ccc([C@H](CCN2[C@@H]3CC[C@H]2C[C@H](n2c(C)nnc2C(C)C)C3)NC(=O)C2CCN(S(C)(=O)=O)CC2)s1
discrete.label: true
--
compound: Cc1csc([C@H](CCN2[C@@H]3CC[C@H]2C[C@H](n2c(C)nnc2C(C)C)C3)NC(=O)C2CCN(S(C)(=O)=O)CC2)c1
discrete.label: false
--
compound: COC(=O)C1CCC(C(=O)N[C@@H](CCN2[C@@H]3CC[C@H]2C[C@H](n2c(C)nnc2C(C)C)C3)c2cccs2)CC1 (some centres not stated)
discrete.label: true
--
compound: Cc1nnc(C(C)C)n1[C@@H]1C[C@H]2CC[C@@H](C1)N2CC[C@H](NC(=O)C1CCC(F)(F)CC1)c1ccsc1Cl
discrete.label: true
--
compound: Cc1nnc(C(C)C)n1[C@@H]1C[C@H]2CC[C@@H](C1)N2CC[C@H](NC(=O)C1CCC(F)(F)CC1)c1cscn1
discrete.label: false
--
compound: Cc1nnc(C(C)C)n1[C@@H]1C[C@H]2CC[C@@H](C1)N2CC[C@H](NC(=O)C(F)(F)F)c1csc2ccccc12
discrete.label: false
--
compound: Cc1nc2c(n1[C@@H]1C[C@H]3CC[C@@H](C1)N3CC[C@H](NC(=O)C1CCC(F)(F)CC1)c1ccsc1)CCN(C(=O)C(C)C)C2
discrete.label: true
--
compound: Cc1nnc(C(C)C)n1[C@@H]1C[C@H]2CC[C@@H](C1)N2CC[C@H](NC(=O)C1CCC(F)(F)CC1)c1ccc(C#N)s1
discrete.label: false
--
compound: CNS(=O)(=O)c1cccc(C(=O)N[C@@H](CCN2[C@@H]3CC[C@H]2C[C@H](n2c(C)nnc2C(C)C)C3)c2cccs2)c1
discrete.label: false
--
compound: COCc1nnc(C(C)C)n1[C@@H]1C[C@H]2CC[C@@H](C1)N2CC[C@H](NC(=O)C1CCC(F)(F)CC1)c1ccsc1
discrete.label: true
--
compound: Cc1nnc(C(C)C)n1[C@@H]1C[C@H]2CC[C@@H](C1)N2CC[C@H](NC(=O)C1CCCCC1)c1ccc(F)s1
discrete.label: true
--
compound: CC(=O)N[C@@H](CCN1[C@@H]2CC[C@H]1C[C@H](n1c(C)nnc1C(C)C)C2)c1cccs1
discrete.label: true
--
compound: Cc1nnc(C(C)C)n1[C@@H]1C[C@H]2CC[C@@H](C1)N2CC[C@H](NC(=O)C1CCCC1)c1ccc(C#N)s1
discrete.label: false
--
compound: Cc1ccc([C@H](CCN2[C@@H]3CC[C@H]2C[C@H](n2c(C)nnc2C(C)C)C3)NC(=O)Cn2cnnn2)s1
discrete.label: false
--
compound: CC(=O)N1CCc2c(nc(C)n2[C@@H]2C[C@H]3CC[C@@H](C2)N3CC[C@H](NC(=O)C2CCC(F)(F)CC2)c2ccsc2)C1
discrete.label: true
--
compound: COc1ccc(S(N)(=O)=O)cc1C(=O)N[C@@H](CCN1[C@@H]2CC[C@H]1C[C@H](n1c(C)nnc1C(C)C)C2)c1cccs1
discrete.label: false
--
compound: Cc1nnc(C(C)C)n1[C@@H]1C[C@H]2CC[C@@H](C1)N2CC[C@H](NC(=O)C1CCCC1)c1ccsc1Cl
discrete.label: true
--
compound: CC(=O)Nc1cccc(C(=O)N[C@@H](CCN2[C@@H]3CC[C@H]2C[C@H](n2c(C)nnc2C(C)C)C3)c2cccs2)c1
discrete.label: false
--
compound: CC(=O)N[C@@H](CCN1C2CCC1CC(n1c(C)nc3c1CCN(C(=O)C(C)C)C3)C2)c1cccc(F)c1 (some centres not stated)
discrete.label: true
--
compound: Cc1ccsc1[C@H](CCN1[C@@H]2CC[C@H]1C[C@H](n1c(C)nnc1C(C)C)C2)NC(=O)C1CCCC1
discrete.label: true
--
compound: Cc1ccc([C@H](CCN2[C@@H]3CC[C@H]2C[C@H](n2c(C)nnc2C(C)C)C3)NC(=O)CC#N)s1
discrete.label: false
